# TARGET SYSTEM: T1, EphB2, P29323
# T1 chain: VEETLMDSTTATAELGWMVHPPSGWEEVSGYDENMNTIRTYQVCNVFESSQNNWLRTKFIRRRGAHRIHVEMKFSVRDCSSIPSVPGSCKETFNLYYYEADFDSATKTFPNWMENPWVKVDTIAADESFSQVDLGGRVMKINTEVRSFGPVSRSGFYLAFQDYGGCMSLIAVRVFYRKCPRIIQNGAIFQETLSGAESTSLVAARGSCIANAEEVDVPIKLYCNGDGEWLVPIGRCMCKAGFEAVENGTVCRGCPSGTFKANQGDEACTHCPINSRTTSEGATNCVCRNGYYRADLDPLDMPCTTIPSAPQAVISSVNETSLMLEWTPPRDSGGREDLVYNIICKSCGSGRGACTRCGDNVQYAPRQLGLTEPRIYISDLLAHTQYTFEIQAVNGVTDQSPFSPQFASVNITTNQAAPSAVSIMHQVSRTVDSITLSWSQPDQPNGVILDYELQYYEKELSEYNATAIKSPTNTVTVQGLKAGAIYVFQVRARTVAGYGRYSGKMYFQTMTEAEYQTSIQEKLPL
# PROTOCOL DESCRIPTION: BLI
# EXPERIMENTAL CONDITIONS: modification not given
MEASUREMENT NAME: Kd (µM)
Write down the numeric answer in µM and omit the unit.

Fill in the blank: the reported Kd of QEFSPNLWGLEFKKN [xEFN_RBD4] is ____. 263
